- System: carbapenem-susceptible A. baumannii isolates (n = 54)
- assay summary: MIC, broth microdilution (EUCAST), carbapenem-susceptible A. baumannii isolates
- Type: cell-based, Acinetobacter baumannii
- condition set: Acinetobacter baumannii, isolate Ab218; in combinations ETZ fixed at 8 mg/L
- Protocol: The bacterial strains used in this study comprised 208 clinical isolates from the Spanish National Acinetobacter spp. […] The antimicrobial susceptibility of the 208 Acinetobacter spp. isolates was assessed using the broth microdilution method, as described in the European Committee on Antimicrobial Susceptibility Testing (EUCAST) v.15 guidelines (http://www.eucast.org/clinical_breakpoints). […] MICs for enmetazobactam alone were assessed as well. […]
Please respond with reported MIC for every item in the list.
Numeric answer only, unit µg/mL assumed.

Report the value of MIC obtained on carbapenem-susceptible A. baumannii isolates (n = 54) for CC1(C)[C@H](C(=O)O)N2C(=O)C[C@H]2S1(=O)=O .
1

Report the value of MIC obtained on carbapenem-susceptible A. baumannii isolates (n = 54) for CO/N=C(\C(=O)N[C@@H]1C(=O)N2C(C(=O)[O-])=C(C[N+]3(C)CCCC3)CS[C@H]12)c1csc(N)n1 [cefepime] .
2

Report the value of MIC obtained on carbapenem-susceptible A. baumannii isolates (n = 54) for C[C@@H](O)[C@H]1C(=O)N2C(C(=O)O)=C(SCCN=CN)C[C@H]12 .
0.25

Report the value of MIC obtained on carbapenem-susceptible A. baumannii isolates (n = 54) for C[n+]1ccn(C[C@@]2(C)[C@H](C(=O)[O-])N3C(=O)C[C@H]3S2(=O)=O)n1 .
2
